# pEC50 per record follows
Test system: SARS-CoV-2
experimental-details: Antiviral activity against SARS-CoV-2 infected in human Huh-7 cells harboring viral replicon/EGFP/Neo genes assessed as inhibition of EGFP expression incubated for 24 hrs
Assay type: functional, organism-based
condition-parameters: Severe acute respiratory syndrome coronavirus 2, Huh-7, 24 h
Just the number, please; pEC50 means minus log10 of the concentration in mol/L.

O=C(CCc1cc(O)c(O)c(O)c1)c1ccc(F)cc1 ... 4.49
CC(=O)Oc1c(Cl)c(/C=C/C(=O)c2ccc(F)cc2)c(Cl)c(OC(C)=O)c1OC(C)=O ... 4.39
O=C(/C=C/c1c(Cl)c(O)c(O)c(O)c1Cl)c1ccc(F)cc1 ... 4.70

Turning now to a further record.
INPUT: // fetch pEC50 for O=C(/C=C/c1cc(O)c(O)c(O)c1)c1ccc(F)cc1 ; system: SARS-CoV-2
OUTPUT: 4.93
